pIC50 for Macrophage migration inhibitory factor (Homo sapiens, UniProt P14174) - collated from the literature.
pIC50: −log10 of the molar value.
Parameter Measured: pIC50

Record excerpt, results attached:
Molecule | pIC50
COc1ccc(N/N=C/c2ccc(O)c(Br)c2)cc1 | 6.48
COc1cc(C2=NOC(CC(=O)O)C2)ccc1O (stereo not drawn) | 4.99
Nc1ccccc1NC(=O)c1ccc(NC(=O)Cc2ccc(N3Cc4ccc(O)cc4OC3=O)cc2)cc1 | 6.74

I = COC(=O)CC1CC(c2ccc(O)c(F)c2)=NO1 (stereo not drawn)
II = O=C(CCC1CCCCC1)O/N=C/c1ccc(O)cc1
Exercise: // pick larger pIC50 from pair: I vs II Give the chosen item's label as your response.
Solution: II

A = O=C(CC1CC(c2ccc(O)cc2)=NO1)OCC1CCCCC1 (stereo not drawn)
B = COc1ccc(N/N=C/c2ccc(O)cc2)cc1
Exercise: Kindly identify which of A and B has the larger recorded pIC50 value. Selection: enter the item's label.
Solution: B

I = COC(=O)CC1CC(c2ccc(OC)cc2)=NO1 (stereo not drawn)
II = CCCCOC(=O)CC1CC(c2ccc(OC)cc2)=NO1 (stereo not drawn)
III = CC(C)(C)C(=O)O/N=C/c1ccc(O)cc1
IV = COc1ccc(N/N=C/c2ccc(O)c(Cl)c2)cc1
Exercise: Task field, ranking: reported pIC50, descending order. Give the order by naming the labels one after another as requested.
Solution: IV, II, I, III
(IV: 6.66, II: 4.95, I: 4.71, III: 3.95)

P = Cc1cc(C)c(OC(=O)CC2CC(c3ccc(O)cc3)=NO2)c(C)c1 (stereo not drawn)
Q = COC(=O)[C@H](CO)/N=C/c1ccc(O)cc1
R = O=C(CC1CC(c2ccc(O)cc2)=NO1)Oc1ccccc1 (stereo not drawn)
Exercise: Sort low-to-high on pIC50, please. State the ranking by listing the labels in the requested order.
Solution: Q, P, R
(Q: 4.00, P: 4.70, R: 5.00)
